- assay_explanation: gradient 5% acetonitrile 3 min, to 50% in 2 min, to 85% in 15 min, held 3 min, 100 µL/min
- measurement_conditions: column: Zorbax Extend-C18 2.1 x 50 mm; eluents: water / acetonitrile, 0.1% formic acid
endpoint_label: RP-LC retention time

Reference set, count: 3
In [3]: df
Out[3]:
                                smiles_code  endpoint_value
0  Cc1cccc(NC(=O)Cn2c(C)nc3c(sc4nc(-c5ccccc5)ccc43)c2=O)c1           880 s
1  CCN1C(=O)c2cccnc2Sc2cc(NC(=O)c3cccc(Cl)c3)ccc21           912 s
2  CCSc1nnc(-c2nn(C)c3c2CN(S(=O)(=O)c2cc(Cl)ccc2OC)CC3)n1CC           975 s

# input for lookup
# RP-LC retention time lookup, item `COc1ccc(Cl)cc1NC(=O)Nc1ccc2c(c1)CCN2S(=O)(=O)c1ccccc1` 1090 s
